meta.source: paper PMC9233935

# Measured Target: Mtb gyrase (Mycobacterium tuberculosis, UniProt P9WG45+P9WG47)
# Sequence (P9WG45 whole entry, looked up): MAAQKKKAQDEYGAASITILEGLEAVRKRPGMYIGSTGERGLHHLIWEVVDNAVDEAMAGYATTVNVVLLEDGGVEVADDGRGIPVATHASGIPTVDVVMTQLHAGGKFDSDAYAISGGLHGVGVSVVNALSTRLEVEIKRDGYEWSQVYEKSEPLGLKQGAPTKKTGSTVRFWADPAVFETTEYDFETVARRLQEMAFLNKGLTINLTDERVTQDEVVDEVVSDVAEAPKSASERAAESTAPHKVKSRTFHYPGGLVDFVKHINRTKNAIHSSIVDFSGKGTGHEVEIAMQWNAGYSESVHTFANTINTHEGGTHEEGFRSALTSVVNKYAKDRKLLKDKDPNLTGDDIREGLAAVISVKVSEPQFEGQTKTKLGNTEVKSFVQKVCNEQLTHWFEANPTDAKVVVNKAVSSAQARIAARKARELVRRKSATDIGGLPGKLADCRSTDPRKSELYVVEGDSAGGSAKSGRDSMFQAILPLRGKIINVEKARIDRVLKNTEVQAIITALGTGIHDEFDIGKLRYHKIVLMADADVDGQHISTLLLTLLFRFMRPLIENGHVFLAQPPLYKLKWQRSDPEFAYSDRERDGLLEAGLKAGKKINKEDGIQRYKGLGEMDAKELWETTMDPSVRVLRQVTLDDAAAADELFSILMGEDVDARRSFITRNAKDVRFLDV
# Sequence (P9WG47 whole entry, looked up): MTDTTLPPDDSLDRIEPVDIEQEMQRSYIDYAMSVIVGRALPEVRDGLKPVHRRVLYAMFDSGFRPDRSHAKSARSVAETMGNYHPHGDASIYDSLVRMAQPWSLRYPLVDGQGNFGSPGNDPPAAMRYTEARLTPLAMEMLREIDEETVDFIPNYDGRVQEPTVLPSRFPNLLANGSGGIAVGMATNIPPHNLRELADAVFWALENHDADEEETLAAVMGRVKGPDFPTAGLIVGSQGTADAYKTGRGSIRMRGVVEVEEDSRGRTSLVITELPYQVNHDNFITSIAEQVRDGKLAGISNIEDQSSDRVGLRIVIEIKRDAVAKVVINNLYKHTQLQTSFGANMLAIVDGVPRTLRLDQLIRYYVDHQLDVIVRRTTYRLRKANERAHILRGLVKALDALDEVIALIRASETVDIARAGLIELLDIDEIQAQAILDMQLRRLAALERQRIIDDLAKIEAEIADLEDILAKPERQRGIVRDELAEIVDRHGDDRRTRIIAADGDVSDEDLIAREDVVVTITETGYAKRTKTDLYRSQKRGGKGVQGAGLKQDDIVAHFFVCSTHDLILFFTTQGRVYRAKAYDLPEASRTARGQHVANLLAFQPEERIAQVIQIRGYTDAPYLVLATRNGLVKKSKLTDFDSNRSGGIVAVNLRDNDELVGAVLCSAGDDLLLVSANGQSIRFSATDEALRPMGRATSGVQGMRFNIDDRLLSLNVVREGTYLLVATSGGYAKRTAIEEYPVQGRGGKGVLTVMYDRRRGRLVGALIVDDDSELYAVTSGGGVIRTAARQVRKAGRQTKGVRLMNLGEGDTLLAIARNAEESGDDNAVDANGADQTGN
# Assay Explanation: biochemical
Result Type: IC50 (µM)
Numbers only, in µM.

Here is how some compounds turned out for IC50.
{"Compound": "C[C@@H]1CN2c3c(cc4c(N5C(=O)OC[C@@H]5C)noc4c3F)CC3(C(=O)NC(=O)NC3=O)[C@H]2[C@H](C)N1O [Compound 35]", "Measured Target": "Mtb gyrase (Mycobacterium tuberculosis, UniProt P9WG45+P9WG47)", "Readout Unit": "µM", "Quantitative Result": 207}
{"Compound": "C[C@@H]1CN2c3c(cc4c(OC[C@@H]5CCC(=O)N5)noc4c3F)CC3(C(=O)NC(=O)NC3=O)[C@H]2[C@H](C)N1C#N [Compound 42]", "Measured Target": "Mtb gyrase (Mycobacterium tuberculosis, UniProt P9WG45+P9WG47)", "Readout Unit": "µM", "Quantitative Result": 2.6}

From here, focus on the item given below.
Briefly, IC50 measured for C[C@@H]1CN2c3c(cc4c(N5CC[C@H](O)C5)noc4c3F)CC3(C(=O)NC(=O)NC3=O)[C@H]2[C@H](C)N1C#N [Compound 40] : 19
